- Test system: HepG2
- assay.comment: MTT cytotoxicity assay, hepatocellular carcinoma cells
- Assay type: cell-based, human
- experimental.conditions: Homo sapiens, HepG2; MTT, 48 hrs incubation; read-out: HepG2 (IC50% μg/ml)
measure: IC50 (µg/mL)
Your answer should be a plain number; it is taken to be in µg/mL.

Known IC50 results, listed for orientation:
{"smiles.repr": "O=C(/C=C/c1ccc(F)cc1)[C@H]1[C@H](c2ccc(F)cc2)[C@H]2CSCN2[C@]12C(=O)Nc1ccccc12", "IC50 / µg/mL": 1.2}
{"smiles.repr": "O=C(/C=C/c1cccc(Br)c1)[C@H]1[C@H](c2cccc(Br)c2)[C@H]2CSCN2[C@]12C(=O)Nc1ccccc12", "IC50 / µg/mL": 0.5}
{"smiles.repr": "O=C(/C=C/c1ccc(Cl)cc1Cl)[C@H]1[C@H](c2ccc(Cl)cc2Cl)[C@H]2CSCN2[C@]12C(=O)Nc1ccccc12", "IC50 / µg/mL": 0.5}
{"smiles.repr": "COc1ccc(/C=C/C(=O)[C@H]2[C@H](c3ccc(OC)cc3)[C@H]3CSCN3[C@]23C(=O)Nc2ccccc23)cc1", "IC50 / µg/mL": 1.1}
{"smiles.repr": "O=C(/C=C/c1ccc2ccccc2c1)[C@H]1[C@H](c2ccc3ccccc3c2)[C@H]2CSCN2[C@]12C(=O)Nc1ccccc12", "IC50 / µg/mL": 1.3}

Now for another entry.
Requested read-out: IC50. Entry: O=C(/C=C/c1c(Cl)cccc1Cl)[C@H]1[C@H](c2c(Cl)cccc2Cl)[C@H]2CSCN2[C@]12C(=O)Nc1ccccc12 0.6

Just for reference, patent US9822128B1 is where these values come from.
